Assay Target: EGF receptor tyrosine kinase (EGFRTK) (Homo sapiens)
Construct: This cell line expresses a large number of EGF receptors which have tyrosine kinase activity on the cell surface; endogenous in cells; host or cells: A 431 (ATCC CRL 1555), membrane preparation
Sequence (P00533 25-1210): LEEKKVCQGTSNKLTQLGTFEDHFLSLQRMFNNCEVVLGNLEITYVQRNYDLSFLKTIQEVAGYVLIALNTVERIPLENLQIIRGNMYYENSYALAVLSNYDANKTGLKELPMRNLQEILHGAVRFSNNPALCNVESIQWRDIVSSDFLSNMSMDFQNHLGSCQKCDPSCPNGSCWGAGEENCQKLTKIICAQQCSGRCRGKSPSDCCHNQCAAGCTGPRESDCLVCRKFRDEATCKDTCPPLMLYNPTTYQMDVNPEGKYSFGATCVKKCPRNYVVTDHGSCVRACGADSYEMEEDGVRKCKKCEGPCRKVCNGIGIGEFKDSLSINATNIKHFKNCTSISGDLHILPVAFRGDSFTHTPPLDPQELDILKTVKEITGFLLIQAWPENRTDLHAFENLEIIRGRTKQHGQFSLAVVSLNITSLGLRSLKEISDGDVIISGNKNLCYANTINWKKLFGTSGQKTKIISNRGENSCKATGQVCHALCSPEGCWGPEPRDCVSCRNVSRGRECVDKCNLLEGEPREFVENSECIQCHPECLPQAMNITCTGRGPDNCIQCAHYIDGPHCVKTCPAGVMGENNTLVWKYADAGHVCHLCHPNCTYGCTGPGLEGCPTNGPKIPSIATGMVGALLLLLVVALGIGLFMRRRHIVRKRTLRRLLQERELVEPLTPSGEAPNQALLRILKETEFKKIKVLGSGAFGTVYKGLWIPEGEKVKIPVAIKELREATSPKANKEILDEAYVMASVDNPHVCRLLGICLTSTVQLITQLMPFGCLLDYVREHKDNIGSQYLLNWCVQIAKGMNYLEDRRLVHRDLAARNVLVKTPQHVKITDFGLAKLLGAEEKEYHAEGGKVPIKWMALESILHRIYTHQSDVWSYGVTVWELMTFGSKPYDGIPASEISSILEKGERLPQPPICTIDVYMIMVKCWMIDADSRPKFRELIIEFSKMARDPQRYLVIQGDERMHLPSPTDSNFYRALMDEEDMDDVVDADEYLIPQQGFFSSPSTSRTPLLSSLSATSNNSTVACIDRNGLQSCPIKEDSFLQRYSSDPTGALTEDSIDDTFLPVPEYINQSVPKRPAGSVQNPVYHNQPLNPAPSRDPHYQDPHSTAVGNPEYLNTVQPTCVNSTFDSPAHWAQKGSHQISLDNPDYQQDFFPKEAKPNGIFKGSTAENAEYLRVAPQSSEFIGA
Experiment Summary: biochemical
Recorded Conditions: A 431 membranes; 1000 nM EGF; 32 μM ATP; 15' at 30° C.; max. 51 μg/ml; read-out: EGFRTK IC50 (converted)
Measured Attribute: log10 of IC50 (log10 of the value in µM)
Scale: log10; quantity: IC50; unit before log: µM

Take a look at these entries with their results.
| Compound | log10 of IC50 |
| --- | --- |
| Oc1ccc(O)c(C=NC2CCCCC2)c1 [N-Cyclohexyl-2,5-dihydroxybenzaldimine] | 1.65 |
| CN1CCN(N=Cc2cc(O)ccc2O)CC1 | 0.38 |
| Oc1ccc(N=Cc2cc(O)ccc2O)cc1 | 1.74 |
| O=C(O)c1cc(N=Cc2cc(O)ccc2O)ccc1O | 1.44 |

Note: attention shifts to another entry.
Q) What value of log10 of IC50 has been recorded for this entry: Oc1ccc(O)c(-c2ccccc2)c1 [2-Phenylhydroquinone]
A) 0.74

Sourced from patent US5519018A
